Source of measurements: patent US20240425523A1

# TARGET_OR_TEST_SYSTEM: EGFR-L858R/C797S (H1975-clone #8 cells) (Homo sapiens, UniProt P00533, C797S/L858R)
# Construct: expressed in transfected cells; host or cells: H1975 (endogenous EGFR knocked out, clone #8)
# Sequence (P00533 25-1210 C797S/L858R): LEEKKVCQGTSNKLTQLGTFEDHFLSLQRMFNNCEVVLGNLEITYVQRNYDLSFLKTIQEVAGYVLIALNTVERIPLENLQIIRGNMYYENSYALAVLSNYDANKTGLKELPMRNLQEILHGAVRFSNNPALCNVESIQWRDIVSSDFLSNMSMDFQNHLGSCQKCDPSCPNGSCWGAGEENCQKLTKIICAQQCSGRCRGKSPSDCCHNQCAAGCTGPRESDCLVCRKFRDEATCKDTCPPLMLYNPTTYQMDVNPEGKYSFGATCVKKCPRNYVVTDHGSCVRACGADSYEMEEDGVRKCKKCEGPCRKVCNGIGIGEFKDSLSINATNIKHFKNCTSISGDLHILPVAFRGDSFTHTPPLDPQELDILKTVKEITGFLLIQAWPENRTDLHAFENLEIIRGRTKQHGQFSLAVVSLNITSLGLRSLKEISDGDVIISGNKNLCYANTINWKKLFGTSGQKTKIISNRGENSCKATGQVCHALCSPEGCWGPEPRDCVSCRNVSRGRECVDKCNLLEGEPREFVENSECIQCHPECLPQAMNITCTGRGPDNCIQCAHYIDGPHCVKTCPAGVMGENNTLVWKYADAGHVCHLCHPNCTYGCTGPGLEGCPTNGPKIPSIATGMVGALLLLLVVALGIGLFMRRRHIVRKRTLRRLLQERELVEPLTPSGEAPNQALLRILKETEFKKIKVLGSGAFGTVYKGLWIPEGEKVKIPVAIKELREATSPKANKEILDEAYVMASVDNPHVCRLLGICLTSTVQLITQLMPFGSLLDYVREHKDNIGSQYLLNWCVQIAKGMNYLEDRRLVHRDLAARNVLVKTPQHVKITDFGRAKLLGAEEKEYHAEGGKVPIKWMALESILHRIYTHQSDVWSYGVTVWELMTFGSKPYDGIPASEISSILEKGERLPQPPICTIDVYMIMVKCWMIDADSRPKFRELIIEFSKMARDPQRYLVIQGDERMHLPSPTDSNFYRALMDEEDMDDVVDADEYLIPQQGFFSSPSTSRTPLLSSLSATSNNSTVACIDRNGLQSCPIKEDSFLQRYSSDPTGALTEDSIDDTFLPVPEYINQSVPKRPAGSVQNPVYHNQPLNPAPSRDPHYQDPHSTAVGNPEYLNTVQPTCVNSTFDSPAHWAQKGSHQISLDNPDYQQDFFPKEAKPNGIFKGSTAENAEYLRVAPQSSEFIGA
# TEST_SUMMARY: Cell degradation of EGFR, HTRF assay, H1975-clone#8 (L858R/C797S) cells
# Format: cell-based
# MEASUREMENT_CONDITIONS: 16 h treatment, EGFR degradation
REPORTED_ENDPOINT: DC50 (nM)

# annotated cases, reported DC50 shown
Please give the measured DC50 for this compound: COC[C@H]1CN(c2ccc3c(c2)N2CC4CC[C@H](COc5c(c(C(F)F)nn5C)-c5cc(cc(C)n5)C(=O)/N=C/2N3)C4)CCN1C1CCN(c2cc(F)c([C@H]3CCC(=O)NC3=O)c(F)c2)CC1 [Example 104]
3.7

Please give the measured DC50 for this compound: Cc1cc2cc(n1)-c1cnn(C)c1OC[C@H]1CC[C@H](C1)CN1/C(=N/C2=O)Nc2ccc(N3CCN([C@H]4CCN(c5ccc(C6CCC(=O)NC6=O)nc5C)C[C@H]4F)CC3)cc21 (stereo partly shown) [Example 15]
11.1

A: Cc1cc2cc(n1)-c1c(C)nn(C)c1OC[C@H]1CC[C@H](C1)CN1/C(=N/C2=O)Nc2ccc(N3CCC(N4CCC(Nc5cc(F)c([C@H]6CCC(=O)NC6=O)c(F)c5)CC4)CC3)cc21 (single isomer, unassigned) [Example 213]
B: COC[C@H]1CN(c2ccc3c(c2)N2CC4CC[C@H](COc5c(cnn5C)-c5cc(cc(C)n5)C(=O)/N=C/2N3)C4)CCN1C1CCN(c2cc(F)c(C3CCC(=O)NC3=O)nc2C)CC1 (stereo partly shown) [Example 71]
For this pair, A and B , which shows a numerically higher DC50? Returns: label corresponding to the selected item.
B

P: Cc1cc2cc(n1)-c1cnn(C)c1OC[C@H]1CC[C@H](C1)CN1/C(=N/C2=O)Nc2ccc(N3CCN(C4CCN(c5ccc(C6CCC(=O)NC6=O)nc5C)CC4)CC3)cc21 (stereo partly shown) [Example 2]
Q: Cc1cc2cc(n1)-c1c(C)nn(C)c1OC[C@H]1CCC(C1)CN1/C(=N/C2=O)Nc2ccc(N3CCN(CC4CCN(c5cc(F)c([C@H]6CCC(=O)NC6=O)c(F)c5)CC4)[C@H](C)C3)cc21 [Example 134]
Lab log: flag the item ( P or Q ) with the smaller DC50 figure. Returns: label corresponding to the selected item.
P
(P: 1.38 nM, Q: 4.97 nM)

a: Cc1cc2cc(n1)-c1cnn(C)c1OC[C@H]1CCC(C1)CN1/C(=N/C2=O)Nc2ccc(N3CCN(C4CCN(c5c(F)cc(OC6CCC(=O)NC6=O)cc5F)CC4)CC3)cc21 (stereo partly shown) [Example 111]
b: COC[C@H]1CN(c2ccc3c(c2)N2C[C@H]4CC[C@@H](COc5c(c(C)nn5C)-c5cc(cc(C)n5)C(=O)/N=C/2N3)C4)CCN1C1CCN(c2cc(F)c([C@H]3CCC(=O)NC3=O)c(F)c2)CC1 [Example 150]
For this pair, a and b , which shows a numerically higher DC50? Returns: label corresponding to the selected item.
b

1: COC[C@H]1CN(c2ccc3c(c2)N2CC4CC[C@H](COc5c(c(C)nn5C)-c5cc(cc(C)n5)C(=O)/N=C/2N3)C4)CCN1C1CCN(c2cc(F)c(C3CCC(=O)NC3=O)nc2C)CC1 (stereo partly shown) [Example 90]
2: Cc1cc2cc(n1)-c1c(C)nn(C)c1OC[C@H]1CC[C@H](C1)CN1/C(=N/C2=O)Nc2ccc(N3CCN(CC4CCN(c5cc(F)c([C@H]6CCC(=O)NC6=O)c(F)c5)CC4)CC3)cc21 [Example 182]
3: Cc1cc2cc(n1)-c1cnn(C)c1OC[C@H]1CCC(C1)CN1/C(=N/C2=O)Nc2ccc(N3CC4(C3)CN(C3CCN(c5cc(F)c([C@H]6CCC(=O)NC6=O)c(F)c5)CC3)C4)cc21 [Example 117]
Hey, quick one: sort these by DC50, largest value first please. Hello, could you send the labels back in the order asked? Thank you.
1, 2, 3

a: Cc1cc2cc(n1)-c1c(C)nn(C)c1OC[C@H]1CC[C@H](C1)CN1/C(=N/C2=O)Nc2ccc(N3CCN(C4CCN(c5cc(F)c([C@H]6CCC(=O)NC6=O)c(F)c5)CC4)C(=O)C3)cc21 [Example 164]
b: Cc1cc2cc(n1)-c1cnn(C)c1OC[C@H]1CC[C@H](C1)CN1/C(=N/C2=O)Nc2ccc(N3CCN([C@@H]4CCN(c5cc(F)c(C6CCC(=O)NC6=O)nc5C)C[C@@H]4F)CC3)cc21 (stereo partly shown) [Example 14]
For this pair, a and b , which shows a numerically higher DC50? Returns: label corresponding to the selected item.
a

1: Cc1cc2cc(n1)-c1c(C)nn(C)c1OC[C@H]1CC[C@H](C1)CN1/C(=N/C2=O)Nc2ccc(N3CCN(C4CCN(c5cc(F)c([C@H]6CCC(=O)NC6=O)c(F)c5)CC4)C[C@H]3C)cc21 [Example 190]
2: COC[C@@H]1CN(c2ccc3c(c2)N2C[C@@H]4CCC(COc5c(c(C)nn5C)-c5cc(cc(C)n5)C(=O)/N=C/2N3)C4)CCN1C1CN(C2CCN(c3cc(F)c([C@H]4CCC(=O)NC4=O)c(F)c3)CC2)C1 [Example 121]
3: Cc1cc2cc(n1)-c1cnn(C)c1OC[C@H]1CCC(C1)CN1/C(=N/C2=O)Nc2ccc(N3CCN(C4CCN(c5ccc(NC6CCC(=O)NC6=O)nc5C)CC4)CC3)cc21 (stereo partly shown) [Example 98]
Hey, quick one: sort these by DC50, largest value first please. Hello, could you send the labels back in the order asked? Thank you.
3, 1, 2
(3: 2.49 nM, 1: 1.69 nM, 2: 0.98 nM)

1: Cc1nn(C)c2c1-c1cc(cc(Cl)n1)C(=O)/N=C1\Nc3ccc(N4CCN(C5CCN(c6cc(F)c([C@H]7CCC(=O)NC7=O)c(F)c6)CC5)CC4)cc3N1C[C@@H]1CC[C@H](CO2)C1 [Example 179]
2: Cc1cc2cc(n1)-c1c(C)nn(C)c1OC[C@H]1CC[C@H](C1)CN1/C(=N/C2=O)Nc2ccc(N3CCN(C4CCN(c5cc(F)c([C@H]6CCC(=O)NC6=O)c(F)c5)CC4)[C@H](C)C3)cc21 [Example 192]
Lab log: flag the item ( 1 or 2 ) with the smaller DC50 figure. Returns: label corresponding to the selected item.
2
(2: 1.01 nM, 1: 10.6 nM)
